This collection of values is drawn from ChEMBL document CHEMBL4354796.

# TARGET DESC: UniProtKB O76083
# Sequence (O76083 whole entry): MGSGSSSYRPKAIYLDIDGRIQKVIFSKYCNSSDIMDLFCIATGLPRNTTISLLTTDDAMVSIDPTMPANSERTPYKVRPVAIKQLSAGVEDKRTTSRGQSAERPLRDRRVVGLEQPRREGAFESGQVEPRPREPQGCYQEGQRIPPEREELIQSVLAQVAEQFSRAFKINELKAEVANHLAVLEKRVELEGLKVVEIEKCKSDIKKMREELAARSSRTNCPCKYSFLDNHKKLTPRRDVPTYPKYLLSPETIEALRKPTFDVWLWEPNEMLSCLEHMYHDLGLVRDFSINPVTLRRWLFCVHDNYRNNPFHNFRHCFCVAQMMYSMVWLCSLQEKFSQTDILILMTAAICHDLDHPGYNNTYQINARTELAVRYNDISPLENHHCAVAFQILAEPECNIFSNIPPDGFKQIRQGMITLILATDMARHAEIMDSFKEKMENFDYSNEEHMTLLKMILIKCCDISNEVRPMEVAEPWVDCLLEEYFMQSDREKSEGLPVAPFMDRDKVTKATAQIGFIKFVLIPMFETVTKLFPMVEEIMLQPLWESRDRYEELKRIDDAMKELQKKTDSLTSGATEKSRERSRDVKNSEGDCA
pIC50: −log10 of the molar value.
QUANTITY KIND: pIC50

Which value of pIC50 has been reported for `Cc1ccc2c(c1)nc(CCN1C(=O)c3cccc4cccc(c34)C1=O)n2-c1ccncc1` in the records?
< 4.70

----------
# TARGET DESC: Prostaglandin G/H synthase 2 (Homo sapiens, UniProt P35354)
# Sequence (P35354 whole entry): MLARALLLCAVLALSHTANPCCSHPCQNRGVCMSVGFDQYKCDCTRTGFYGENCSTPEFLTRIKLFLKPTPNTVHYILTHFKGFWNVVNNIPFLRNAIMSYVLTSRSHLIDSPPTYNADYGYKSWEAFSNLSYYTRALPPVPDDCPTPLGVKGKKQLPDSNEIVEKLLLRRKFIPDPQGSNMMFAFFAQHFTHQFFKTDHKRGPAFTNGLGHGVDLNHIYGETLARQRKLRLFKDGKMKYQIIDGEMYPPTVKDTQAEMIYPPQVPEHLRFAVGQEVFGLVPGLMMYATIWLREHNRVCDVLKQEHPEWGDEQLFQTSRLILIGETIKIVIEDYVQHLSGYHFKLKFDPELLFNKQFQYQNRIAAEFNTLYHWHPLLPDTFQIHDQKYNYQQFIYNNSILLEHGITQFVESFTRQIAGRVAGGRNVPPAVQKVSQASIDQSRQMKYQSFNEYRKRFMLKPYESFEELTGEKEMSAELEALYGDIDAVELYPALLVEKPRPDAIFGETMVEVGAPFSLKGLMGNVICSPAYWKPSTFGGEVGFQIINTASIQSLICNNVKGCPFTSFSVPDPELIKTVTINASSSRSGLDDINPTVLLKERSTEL
QUANTITY KIND: IC50

Which value of IC50 has been reported for `Cc1ccc2c(c1)nc(CCN1C(=O)c3cccc4cccc(c34)C1=O)n2-c1ccncc1` in the records?
> 10 µM

----------
# TARGET DESC: UniProt Q13547
# Sequence (Q13547 whole entry): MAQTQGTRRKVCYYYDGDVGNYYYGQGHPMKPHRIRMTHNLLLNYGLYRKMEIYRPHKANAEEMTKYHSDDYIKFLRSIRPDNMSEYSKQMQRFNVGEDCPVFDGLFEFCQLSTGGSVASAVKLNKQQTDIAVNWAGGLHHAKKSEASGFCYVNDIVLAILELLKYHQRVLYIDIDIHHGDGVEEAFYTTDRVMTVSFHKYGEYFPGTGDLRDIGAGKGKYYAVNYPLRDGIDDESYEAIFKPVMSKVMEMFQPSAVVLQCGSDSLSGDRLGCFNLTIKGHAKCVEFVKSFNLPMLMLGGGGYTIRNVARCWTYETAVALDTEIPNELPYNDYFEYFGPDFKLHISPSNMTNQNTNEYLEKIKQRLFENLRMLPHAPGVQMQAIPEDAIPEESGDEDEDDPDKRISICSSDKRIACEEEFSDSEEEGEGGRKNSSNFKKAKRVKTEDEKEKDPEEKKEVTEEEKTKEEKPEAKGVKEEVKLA
# PROTOCOL NOTES: Inhibition of recombinant human full length C-terminal His/FALG-tagged HDAC1 expressed in Sf9 insect cells using acetylated peptide as susbtrate after 60 mins by fluorescence based assay
pIC50: −log10 of the molar value.
QUANTITY KIND: pIC50

Which value of pIC50 has been reported for `Cc1ccc2c(c1)nc(CCN1C(=O)c3cccc4cccc(c34)C1=O)n2-c1ccncc1` in the records?
< 5.00

----------
QUANTITY KIND: IC50

Which measured IC50 belongs to `Cc1ccc2c(c1)nc(CCN1C(=O)c3cccc4cccc(c34)C1=O)n2-c1ccncc1` , tested on cGMP-dependent 3',5'-cyclic phosphodiesterase (Homo sapiens)?
> 20 µM

----------
# PROTOCOL NOTES: AUC(0 to infinity) in Sprague-Dawley rat at 2.5 mg/kg, iv after 24 hrs by LC-MS/MS analysis
# Format: ADME, organism-based
# Parameters: dose 2.5 mg/kg, time infinity, route intravenous
# PROTOCOL CONDITIONS: in vivo
QUANTITY KIND: AUC(0-inf) (ng·h/mL)
Kindly provide the numeric value in ng·h/mL only, without the unit symbol.

Which value of AUC(0-inf) has been reported for `Cc1ccc2c(c1)nc(CCN1C(=O)c3cccc4cccc(c34)C1=O)n2-c1ccncc1` in the records?
1100

----------
# PROTOCOL NOTES: Clearance in Sprague-Dawley rat at 2.5 mg/kg, iv after 24 hrs by LC-MS/MS analysis
# Assay type: ADME, organism-based
# PROTOCOL CONDITIONS: in vivo
QUANTITY KIND: clearance (mL/min/kg)
Kindly provide the numeric value in mL/min/kg only, without the unit symbol.

Which value of clearance has been reported for `Cc1ccc2c(c1)nc(CCN1C(=O)c3cccc4cccc(c34)C1=O)n2-c1ccncc1` in the records?
39
